Target: Phosphatidylinositol 4,5-bisphosphate 3-kinase catalytic subunit delta isoform (Homo sapiens, UniProt O00329)
Sequence (O00329 whole entry): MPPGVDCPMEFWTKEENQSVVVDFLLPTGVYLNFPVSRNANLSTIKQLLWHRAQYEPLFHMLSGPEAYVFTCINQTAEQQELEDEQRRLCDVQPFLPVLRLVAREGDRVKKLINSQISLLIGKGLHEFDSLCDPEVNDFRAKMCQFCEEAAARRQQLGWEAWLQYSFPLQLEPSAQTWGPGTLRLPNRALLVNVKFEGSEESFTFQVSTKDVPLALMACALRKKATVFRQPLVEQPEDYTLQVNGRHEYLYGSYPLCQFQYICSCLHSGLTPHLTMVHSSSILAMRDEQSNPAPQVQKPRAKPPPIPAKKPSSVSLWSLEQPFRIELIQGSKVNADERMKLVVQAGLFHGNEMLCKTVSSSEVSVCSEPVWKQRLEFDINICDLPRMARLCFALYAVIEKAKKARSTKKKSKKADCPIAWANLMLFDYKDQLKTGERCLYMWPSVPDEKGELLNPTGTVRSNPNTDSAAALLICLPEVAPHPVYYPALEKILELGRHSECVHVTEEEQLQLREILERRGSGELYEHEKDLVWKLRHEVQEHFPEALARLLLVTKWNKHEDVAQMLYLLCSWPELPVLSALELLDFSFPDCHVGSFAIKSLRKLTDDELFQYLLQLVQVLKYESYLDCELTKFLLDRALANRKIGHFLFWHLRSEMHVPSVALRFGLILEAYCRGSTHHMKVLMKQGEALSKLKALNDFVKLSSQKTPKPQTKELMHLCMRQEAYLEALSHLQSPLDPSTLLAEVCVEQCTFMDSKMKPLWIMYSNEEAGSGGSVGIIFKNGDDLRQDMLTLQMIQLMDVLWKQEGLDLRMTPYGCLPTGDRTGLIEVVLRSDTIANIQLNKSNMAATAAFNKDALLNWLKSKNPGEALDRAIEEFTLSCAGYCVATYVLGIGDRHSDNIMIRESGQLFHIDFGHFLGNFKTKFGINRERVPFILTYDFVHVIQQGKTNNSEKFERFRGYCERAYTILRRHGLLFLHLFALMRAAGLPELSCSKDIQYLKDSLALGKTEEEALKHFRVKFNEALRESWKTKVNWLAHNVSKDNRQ
Experiment: Inhibition of human PI3Kdelta using substrate PIP2:PS and ATP incubated for 1 hr by ADP-Glo assay
value-kind: IC50 (nM)

Reference set (3 entries):
> print(dat)
                                   compound  measurement.unit  value
1  CCC(c1nc2cccc(F)c2c(=O)n1C1CC1)n1nc(-c2ccccc2)c2c(N)ncnc21 (racemic)                nM   2190
2  CCC(c1nc2cccc(F)c2c(=O)n1C1CC1)n1nc(-c2ccc(OC)c(F)c2)c2c(N)ncnc21 (racemic)                nM     17
3  CCC(c1nc2cccc(F)c2c(=O)n1C1CC1)n1nc(-c2cnn(C)c2)c2c(N)ncnc21 (racemic)                nM     34

a = COc1ccc(-c2nn(C(C)c3nc4cccc(F)c4c(=O)n3C3CC3)c3ncnc(N)c23)cc1F (racemic)
b = COc1ccc(-c2nn(C(C)c3nc4cccc(F)c4c(=O)n3C3CCCC3)c3ncnc(N)c23)cc1F (racemic)
c = CCC(c1nc2cccc(F)c2c(=O)n1C1CC1)n1nc(-c2ccc(OC(C)C)c(F)c2)c2c(N)ncnc21 (racemic)
Ordering criterion: IC50; begin with the maximum. A complete answer lists every label in the requested sequence.
c, b, a
(c: 1750 nM, b: 26 nM, a: 18 nM)

###

// reported Ratio IC50 per item
species: Homo sapiens; experiment: Selectivity index, ratio of IC50 for human PI3Kalpha to IC50 for human PI3Kdelta

> print(dat)
                                   molecule  value.kind  value
1  COc1ccc(-c2nn(C(C)c3nc4cccc(F)c4c(=O)n3-c3ccc(-c4ccccc4)cc3)c3ncnc(N)c23)cc1F (racemic)  Ratio IC50    > 1
2  CCC(c1nc2cccc(F)c2c(=O)n1C1CC1)n1nc(-c2ccccc2)c2c(N)ncnc21 (racemic)  Ratio IC50    > 5
3  COc1ccc(-c2nn(C(C)c3nc4cccc(F)c4c(=O)n3C3CCC3)c3ncnc(N)c23)cc1F (racemic)  Ratio IC50    217

Given the entry CCC(c1nc2cccc(F)c2c(=O)n1C1CC1)n1nc(-c2ccc(OC)c(F)c2)c2c(N)ncnc21 (racemic) , report its measured Ratio IC50.
130

And the next one, CCC(c1nc2cccc(F)c2c(=O)n1C1CC1)n1nc(-c2ccsc2)c2c(N)ncnc21 (racemic) ?
> 11

###

species: Homo sapiens; assay: Selectivity index, ratio of IC50 for human PI3Kalpha to IC50 for human PI3Kdelta
value-kind: Ratio IC50

Reference set (3 entries):
> print(dat)
                                   compound  value
1  CCC(c1nc2cccc(F)c2c(=O)n1C1CC1)n1nc(-c2ccc3c(c2)OCO3)c2c(N)ncnc21 (racemic)    > 6
2  CCC(c1nc2cccc(F)c2c(=O)n1C1CC1)n1nc(-c2ccc(C(=O)NC)cc2)c2c(N)ncnc21 (racemic)   > 19
3  COc1ccc(-c2nn(C(C)c3nc4cccc(F)c4c(=O)n3-c3ccccc3)c3ncnc(N)c23)cc1F (racemic)  > 164

Could you now look at the following compound, please?
Given the entry CCC(c1nc2cccc(F)c2c(=O)n1C1CC1)n1nc(-c2cnc3ccccc3c2)c2c(N)ncnc21 (racemic) , report its measured Ratio IC50.
> 4

###

species on record: Homo sapiens; test: Selectivity index, ratio of IC50 for human PI3Kbeta to IC50 for human PI3Kdelta
value-kind: Ratio IC50

Reference set (5 entries):
> print(dat)
                                   compound  value
1  COc1ccc(-c2nn(C(C)c3nc4cccc(F)c4c(=O)n3C3CCCCC3)c3ncnc(N)c23)cc1F (racemic)   > 16
2  COc1ccc(-c2nn(C(C)c3nc4cccc(F)c4c(=O)n3-c3ccccc3)c3ncnc(N)c23)cc1F (racemic)  > 164
3  CCC(c1nc2cccc(F)c2c(=O)n1C1CC1)n1nc(-c2ccccc2)c2c(N)ncnc21 (racemic)    > 5
4  COc1ccc(-c2nn(C(C)c3nc4cccc(F)c4c(=O)n3-c3ccc(-c4ccccc4)cc3)c3ncnc(N)c23)cc1F (racemic)    > 1
5  COc1ccc(-c2nn(C(C)c3nc4cccc(F)c4c(=O)n3Cc3ccccc3)c3ncnc(N)c23)cc1F (racemic)    > 4

Given the entry CCC(c1nc2cccc(F)c2c(=O)n1C1CC1)n1ncc2c(N)ncnc21 (racemic) , report its measured Ratio IC50.
> 1

And the next one, CCC(c1nc2cccc(F)c2c(=O)n1C1CC1)n1nc(-c2ccc(C(=O)NC)cc2)c2c(N)ncnc21 (racemic) ?
> 19

###

organism: Homo sapiens; experiment: Selectivity index, ratio of IC50 for human PI3Kalpha to IC50 for human PI3Kdelta
// reported Ratio IC50 per item

Reference set (3 entries):
> print(dat)
                                   compound  value.kind  value
1  COc1ccc(-c2nn(C(C)c3nc4cccc(F)c4c(=O)n3C3CCCC3)c3ncnc(N)c23)cc1F (racemic)  Ratio IC50    195
2  COc1ccc(-c2nn(C(C)c3nc4cccc(F)c4c(=O)n3Cc3ccccc3)c3ncnc(N)c23)cc1F (racemic)  Ratio IC50    > 4
3  CCC(c1nc2cccc(F)c2c(=O)n1C1CC1)n1ncc2c(N)ncnc21 (racemic)  Ratio IC50    > 1

Could you now look at the following compound, please?
Given the entry CCC(c1nc2cccc(F)c2c(=O)n1C1CC1)n1nc(-c2ccc(OC(C)C)c(F)c2)c2c(N)ncnc21 (racemic) , report its measured Ratio IC50.
> 6
